# Test system: Candida albicans
# ASSAY INFO: Antimicrobial activity against Candida albicans was determined
# Assay type: functional
READOUT LABEL: Zone of inhibition (mm)
Your answer should be a plain number; it is taken to be in mm.

CSc1sc(-c2nnc(Nc3ccc([N+](=O)[O-])cc3)s2)c2c1C(=O)CCC2 :: 14
CCNc1nnc(-c2sc(SC)c3c2CCCC3=O)s1 :: 13

INPUT: Lab request: please report Zone of inhibition under test system Candida albicans for CCCCNc1nnc(-c2sc(SC)c3c2CCCC3=O)s1
OUTPUT: 11

INPUT: Test system Candida albicans; read-out Zone of inhibition; what value for CNc1nnc(-c2sc(SC)c3c2CCCC3=O)s1 ?
OUTPUT: 12
